Ref: BindingDB's records for doi:10.1007/s10822-022-00478-x

readout-type: pIC50
Bear in mind: pIC50 is minus log10 of a mol/L concentration; give just that figure.

Enter pIC50 (test system UniProtKB Q9Y233) for Cn1cc(-c2ccccc2)nc1COc1nc2ccccc2c(=O)[nH]1 [Roche-Dataset for PDE10A, Compound 366]
7.05

Fill in pIC50 for CCn1nc(C)cc1C(=O)Nc1cc2nc(-c3ccccc3)[nH]c2cc1C(=O)NC [Roche-Dataset for PDE10A, Compound 369] tested with UniProtKB Q9Y233.
7.66

Enter measured pIC50, system UniProtKB Q9Y233, for the molecule shown: CNC(=O)c1cc2[nH]c(-c3ccccc3)nc2cc1NC(=O)c1c(C(=O)N2CCC2)cnn1C [Roche-Dataset for PDE10A, Compound 439]
7.16

Please tell me the measured pIC50 for O=C(NCc1nccn1Cc1ccccc1)c1nc(C2CC2)cnc1Nc1cncnc1 [Roche-Dataset for PDE10A, Compound 631] ; system: UniProtKB Q9Y233.
6.56

Enter measured pIC50, system UniProtKB Q9Y233, for the molecule shown: O=C(Nc1ccn(Cc2ccccc2)n1)c1nc(C2CC2)ccc1Nc1cncnc1 [Roche-Dataset for PDE10A, Compound 446]
8.47

Specify the recorded pIC50 for Cc1c(Cl)cc(Cl)c2nc(CCc3nc4ccccc4n3C)nn12 [Roche-Dataset for PDE10A, Compound 497] , system: UniProtKB Q9Y233.
7.21

Lab note: UniProtKB Q9Y233 assay, enter pIC50 for COCc1ccc(Nc2cncnc2)c(C(=O)Nc2ccnn2-c2ccccn2)n1 [Roche-Dataset for PDE10A, Compound 386] here
8.83

---

- assay-target: cAMP and cAMP-inhibited cGMP 3',5'-cyclic phosphodiesterase 10A (Homo sapiens)
pIC50: −log10 of the molar value.
We use 7 as the dividing line for pIC50: on or above the line is Yes, below is No.

State whether the measured pIC50 reaches 7, counting equality as reaching it, for Cc1c(C(F)(F)F)nc2ccc(OCc3nc(-c4ccccc4)cn3C)nn12 [US10399985, Example 36]
Yes

Hi team, for CN(CCF)C(=O)c1cnn(C)c1C(=O)N[C@@H]1CCn2cc(-c3ccccc3)nc2C1 [Roche-Dataset for PDE10A, Compound 190] , is the recorded pIC50 at or above 7?
No

Could you tell me if the measured pIC50 of O=C1c2ccccc2C(=O)N1CCc1nc(-c2ccccn2)no1 [Roche-Dataset for PDE10A, Compound 490] reaches 7 or more?
No

// inclusive: pIC50 at least 7? input: CNC(=O)c1c(-c2nc(CCc3nc4c(C)ncc(C)n4n3)n(C)n2)cnn1C [Roche-Dataset for PDE10A, Compound 290]
No

Is pIC50 at least 7? Consider Cc1nc2nc(CCc3nc(-c4ccccc4)cn3C)[nH]c(=O)c2n1C [Roche-Dataset for PDE10A, Compound 687]
No

Entry CS(=O)(=O)N1CCC(NC(=O)c2nc(C3CC3)cnc2Nc2cncnc2)CC1 [Roche-Dataset for PDE10A, Compound 1072] : is its pIC50 no less than 7?
No

Check if pIC50 >= 7 (inclusive). Item: `CN(C)c1nc(OCc2cccc(N3CCCC3)n2)nc2ccc(Cl)cc12`
Yes

---

- assay-target: cAMP and cAMP-inhibited cGMP 3',5'-cyclic phosphodiesterase 10A (Homo sapiens, UniProt Q9Y233)
For each record, write down the corresponding IC50.

For the molecule CC(=O)N1CCc2ccc(NC(=O)c3nc(C4CC4)cnc3Nc3cncnc3)cc21 [Roche-Dataset for PDE10A, Compound 827] , give its measured IC50 value.
5.85 nM

Query IC50 for Cc1cnc(C)n2nc(CCc3nc(N4CCCC4)nn3C3CC3)nc12 [Roche-Dataset for PDE10A, Compound 436]
18 nM

Provide IC50 value for the following molecule: `CC(C)(CO)NC(=O)c1ncccc1NC(=O)c1nc(C2CC2)cnc1Nc1cncnc1`
0.31 nM

Hello, please tell me recorded IC50 for this one: CCOC(=O)c1cnn(C)c1C(=O)Nc1cn(-c2ccccn2)cn1 [Roche-Dataset for PDE10A, Compound 960]
2670 nM

Query IC50 for `O=C(Nc1nnc(-c2ccc(F)cc2)s1)c1nc(C2CC2)ccc1Nc1cncnc1`
6200 nM

Output IC50 of COCCN(C)C(=O)c1cnn(C)c1C(=O)Nc1ccn2cc(-c3cccc(F)n3)nc2n1 [Roche-Dataset for PDE10A, Compound 81]
163 nM

State its IC50: CN(C)C(=O)c1nn(C)cc1C(=O)Nc1ccn2cc(-c3ccccc3)nc2n1 [Roche-Dataset for PDE10A, Compound 409]
63 nM

Give recorded IC50. CN(C)C(=O)c1cnn(C)c1C(=O)N[C@@H]1CCn2c(nc(-c3ccccc3)c2Cl)C1 [Roche-Dataset for PDE10A, Compound 221]
30 nM

Supply reported IC50 belonging to this molecule: Cc1nc(C(F)(F)F)n2nc(CCc3nc(N4CCCC4)nn3C)nc2c1C [Roche-Dataset for PDE10A, Compound 432]
7.54 nM

Determine its reported IC50: Cc1ccc(C)c(C(=O)Nc2cc(-c3ccccn3)nn2C)n1 [Roche-Dataset for PDE10A, Compound 726]
3340 nM

Give the reported IC50 for this molecule. O=C(Nc1cccc(N2CCC(O)CC2)c1)c1nc(C2CC2)cnc1Nc1cncnc1 [Roche-Dataset for PDE10A, Compound 703]
13 nM

Give IC50 for the following molecule: CNc1cc(C(=O)Nc2ccn3nc(-c4ccccc4)nc3c2)cc(Cl)n1 [Roche-Dataset for PDE10A, Compound 199]
86 nM

Could you please provide reported IC50 for Cn1ncc(C(=O)O)c1C(=O)Nc1ccc2nc(N3CCOCC3)nn2c1 [Roche-Dataset for PDE10A, Compound 1151] ? Thanks!
1340 nM

Fill in IC50 for record COc1c(C)cnc(/C=C/c2nc(-c3ccccc3)cn2C)c1C [Roche-Dataset for PDE10A, Compound 245]
987 nM
